// data source = ChEMBL document CHEMBL4513216

assay: Toxicity liver stage against HepG2, at 10uM; type: cell-based; design: test concentration 10 uM, cell line HepG2-A16-CD81EGFP; conditions: human, HepG2-A16-CD81EGFP cells; read-out: INHIBITION
measurementType: cytotoxicity at 10 µM (%)
Please give a number only; it is taken to be in %.

[Q] # query: cytotoxicity at 10 µM of entry O=C(Nc1nncs1)N1CCCN(C2CCCCC2)CC1
[A] 1.48

[Q] Next compound: Cc1cccc(CN2CC[C@H]3[C@@H]2CC(=O)N3CC2CC2)n1
[A] -4.25

[Q] Next compound: Cc1ccc(-c2ncc(CN3CCN(C(=O)N(C)C)CC3)s2)o1
[A] -3.25

[Q] Next compound: CC(C(=O)Nc1ncccn1)N1CCCN(c2nccs2)CC1 (stereo not given)
[A] -2.55

[Q] Next compound: O=C(O)c1cn2cc(C(F)(F)F)ccc2n1
[A] 3.52

[Q] Next compound: CC(C)c1nn(C)c(Cl)c1CNCCn1cccn1
[A] -9.11

[Q] Next compound: CCN1CCC(NC(=O)CN2CCCCC2Cn2cc(C)cn2)CC1 (stereo not given)
[A] 0.144

[Q] Next compound: COCCCN1CC2(CCCN(c3ncnc4[nH]ccc34)C2)CCC1=O (stereo not given)
[A] -4.67

[Q] Next compound: CNc1ccc(CC2CCCN(C(=O)c3cnccn3)C2)nn1 (stereo not given)
[A] -9.27

[Q] Next compound: COCCCNc1nc(CNC(=O)C2CCC2)cc(-c2ccco2)n1
[A] -11

[Q] Next compound: Cc1ncsc1-c1nnc(C2CCN(Cc3ccccc3Cl)CC2)o1
[A] -6.86

[Q] Next compound: CNC(=O)[C@H]1C[C@H]2CN(C(=O)NCCc3ccccc3)C[C@@H]1O2
[A] 2.89

[Q] Next compound: Cc1ccc(N2CC[C@H](OCC3CC3)[C@@H]2Cc2cnn(C)c2)nn1
[A] -10.7

[Q] Next compound: CCN(C(=O)C(C)C)C(c1cccnc1)c1ccc2c(c1)CCO2 (stereo not given)
[A] 2.14

[Q] Next compound: O=C(O)C1(Oc2ccccc2F)CCN(C/C=C/c2ccco2)CC1
[A] -6.49

[Q] Next compound: O=C(NCC1CCCCO1)c1cc(Cn2cnc3ccccc32)[nH]n1 (stereo not given)
[A] -11.3

[Q] Next compound: COCC(=O)N1CC[C@@H]2CN(Cc3cccc(Cl)c3)S(=O)(=O)[C@@H]2CC1
[A] -3.07

[Q] Next compound: COc1ccccc1OC1(C(=O)O)CCN(c2ncccc2F)CC1
[A] -12.9

[Q] Next compound: CCc1[nH]c2c(CNc3cncc(C(=O)N(C)C)n3)cc(C)cc2c1C
[A] -10.2

[Q] Next compound: COc1cccc2ncn(C(C)Cn3cccn3)c(=O)c12 (stereo not given)
[A] 1.37
